# System: Plasmodium berghei
# ASSAY PROTOCOL: Screen against P. berghei liver stage (PbLuc), transformed with Luciferase, at 10uM
# Type: functional, HepG2
# MEASUREMENT CONTEXT: tested at 10 uM
In all, about 69,000 compounds went through this assay and about 8,600 (12%) showed an effect of 50% or more. Many of the other results were omitted from the sample, so strong results are more common in it than they were.
Hi! Just check whether INHIBITION is below 20%. Below gives 1, equal or above gives 0.

COMPOUND	GROUP LABEL
CCN1CCNC(=O)C12CCN(C(=O)c1ccccn1)CC2	1
COc1ccc(C2CCCN2c2ccc(C#N)cn2)c(OC)c1 (configuration not stated)	0
COc1ccc(OC)c(CNCc2c(C)nc3sc(C)cn23)c1	1
O=C(Cc1ccsc1)N1CCC(c2ccncc2)CC1	0
COCc1nc(CNC2CCCc3c2cnn3C(C)(C)C)cs1 (configuration not stated)	1
CC(C)CN1CCNC(=O)C12CCN(C(=O)c1ccccn1)CC2	0

Bench note: check whether CC(C)CN1CCc2[nH]cnc2C12CCN(C(=O)c1cc[nH]n1)CC2 shows INHIBITION below 20%
0

Bench note: check whether C[C@@H]1CN(S(C)(=O)=O)C[C@]12CCN(Cc1cccnc1)C2=O shows INHIBITION below 20%
1

Bench note: check whether CS(=O)(=O)N1C[C@H]2CC[C@@H](C1)N(C(=O)CCc1ccsc1)C2 shows INHIBITION below 20%
1

Bench note: check whether Cc1cc(CN2CCN(Cc3ccc(C#N)cc3OC(F)F)CC2)no1 shows INHIBITION below 20%
1

Bench note: check whether c1cnc(N2CC[C@@H](N3CCOCC3)[C@@H]2Cc2ccncc2)nc1 shows INHIBITION below 20%
0

Bench note: check whether Cc1nn(C)c2cnn(Cc3ccc(C(=O)NCC4CCCO4)o3)c12 (configuration not stated) shows INHIBITION below 20%
1

Bench note: check whether Cc1c(F)cccc1S(=O)(=O)NCCN shows INHIBITION below 20%
1

Bench note: check whether COc1cccc(CNCC2CCN(CC(C)O)CC2)c1OC (configuration not stated) shows INHIBITION below 20%
1

Bench note: check whether CC(C)(C)n1ncc2c1CCCC2NCc1ccc2c(c1)CCO2 (configuration not stated) shows INHIBITION below 20%
0

Bench note: check whether COc1cccc(CNCc2c(C)nc3sc(C)cn23)c1OC shows INHIBITION below 20%
0

Bench note: check whether COCC(=O)N1CCCC(Cc2cnc(-c3c(C)n[nH]c3C)cn2)C1 (configuration not stated) shows INHIBITION below 20%
1

Bench note: check whether Cc1nc(C)c(Cn2ccnc2-c2cc(CN(C)C)cs2)s1 shows INHIBITION below 20%
0

Bench note: check whether Cc1ccc(C2CCCCCN2CCNS(C)(=O)=O)o1 (configuration not stated) shows INHIBITION below 20%
0

Bench note: check whether O=C(Cc1ccccc1)N1Cc2nccn2CC(CN2CCCC2)C1 (configuration not stated) shows INHIBITION below 20%
1

Bench note: check whether COc1ccc(Oc2ccc(C(F)(F)F)cn2)cc1CN1CCCC1 shows INHIBITION below 20%
0

Bench note: check whether CN(C)Cc1cc(-c2nccn2CCc2cccnc2)ccc1O shows INHIBITION below 20%
0

Bench note: check whether COc1ccc(CN2CCn3c(CO)nnc3C2)cc1CN1CCCC1 shows INHIBITION below 20%
0

Bench note: check whether Cc1cnc(N2CC[C@@H](N3CCOCC3)[C@@H]2Cc2ccncc2)nc1 shows INHIBITION below 20%
0

Bench note: check whether O=C(Nc1cccs1)NC(CCCO)c1ccccc1 (configuration not stated) shows INHIBITION below 20%
0

Bench note: check whether CC(=O)N1N=C(c2ccco2)OC1C(=O)NCC(C)C (configuration not stated) shows INHIBITION below 20%
1

Bench note: check whether CN(C)Cc1csc(-c2nccn2CCc2cccnc2)c1 shows INHIBITION below 20%
0

Bench note: check whether COc1ccc(CNCc2c(C)nc3sc(C)cn23)c(OC)c1OC shows INHIBITION below 20%
0

Bench note: check whether CC(Cn1cccn1)NC(=O)NCCc1ccsc1 (configuration not stated) shows INHIBITION below 20%
0

Bench note: check whether COc1ccc(CN2CCSCC2)c(OC)c1 shows INHIBITION below 20%
0

Bench note: check whether CN(CCc1cccs1)C(=O)Nc1cnn(CC2CCCO2)c1 (configuration not stated) shows INHIBITION below 20%
1

Bench note: check whether O=C1C(NCc2ccc3c(c2)CCO3)CCN1Cc1ccccc1 (configuration not stated) shows INHIBITION below 20%
1

Bench note: check whether Cc1cnc(C(=O)N2CCC3(CC2)C(=O)NCCN3CC(C)C)cn1 shows INHIBITION below 20%
0

Bench note: check whether COc1cc(Oc2ccc(C#N)cn2)ccc1CN1CCCC1 shows INHIBITION below 20%
0

Bench note: check whether Cc1nn(C)c(Oc2cccc(F)c2)c1NC(=O)C1CCCO1 (configuration not stated) shows INHIBITION below 20%
0

Bench note: check whether CNC(=O)CCN1CCCCCC1c1ccc(C)o1 (configuration not stated) shows INHIBITION below 20%
0
